Just for reference, ChEMBL document CHEMBL1131816 is where these values come from.

test system: Influenza A virus; experiment: Cytotoxicity against A/WSN/33 strain (an H1N1 subtype) influenza virus in the plaque reduction assay; assay type: functional
Known CC50 of a selection of molecules
Answer with a number only, understood to be in µg/mL.

> print(dat)
                               input.smiles  unit.symbol  result.value
1  C[C@@H]1CCC[C@@H]2C[C@@H](NC(=O)c3cc(-c4ccccc4)ccc3O)CCN21        µg/mL            30

The molecule listed as COc1ccc(O)c(C(=O)N[C@H]2CCN3[C@H](CCC[C@H]3C)C2)c1 has a reported CC50 of 100

###

test: Inhibitory activity against A/WSN/33 strain (an H1N1 subtype) influenza virus was measured by cell protection assay in MDBK cells; format: functional, cell-based, Bos taurus
READOUT TYPE: EC50 (µg/mL)
Answer with a number only, understood to be in µg/mL.

Examples with answers:
> print(dat)
                               input.smiles  readout.type  result.value
1  C[C@@H]1CCC[C@@H]2C[C@@H](NC(=O)c3cc(Cl)ccc3O)CCN21          EC50           0.8
2  Cc1ccc(C(=O)N[C@H]2CCN3[C@H](CCC[C@H]3C)C2)c(O)c1          EC50             4
3  C[C@@H]1CCC[C@@H]2C[C@@H](NC(=O)c3ccccc3O)CCN21          EC50           1.6
4  C[C@@H]1CCC[C@@H]2C[C@@H](NC(=O)c3cc(Br)ccc3O)CCN21          EC50           0.8
5  C[C@@H]1CCC[C@@H]2C[C@@H](NC(=O)c3cc(I)ccc3O)CCN21          EC50             1

The molecule listed as C[C@@H]1CCC[C@@H]2C[C@@H](NC(=O)c3cc(Cl)c(N)cc3O)CCN21 has a reported EC50 of 1

The molecule listed as C=Cc1ccc(O)c(C(=O)N[C@H]2CCN3[C@H](CCC[C@H]3C)C2)c1 has a reported EC50 of 2

The molecule listed as Cc1cccc(C(=O)N[C@H]2CCN3[C@H](CCC[C@H]3C)C2)c1O has a reported EC50 of 8

The molecule listed as C[C@@H]1CCC[C@@H]2C[C@@H](NC(=O)c3cc(N=[N+]=[N-])ccc3O)CCN21 has a reported EC50 of 0.5

The molecule listed as C[C@@H]1CCC[C@@H]2C[C@@H](NC(=O)c3c(O)cccc3F)CCN21 has a reported EC50 of 10

The molecule listed as C[C@@H]1CCC[C@@H]2C[C@@H](NC(=O)c3ccccc3N)CCN21 has a reported EC50 of 5

The molecule listed as C[C@@H]1CCC[C@@H]2C[C@@H](NC(=O)c3cc(F)ccc3O)CCN21 has a reported EC50 of 0.4

The molecule listed as COc1ccc(O)c(C(=O)N[C@H]2CCN3[C@H](CCC[C@H]3C)C2)c1 has a reported EC50 of 0.6

The molecule listed as C[C@@H]1CCC[C@@H]2C[C@@H](NC(=O)c3cc(Cl)cc(Cl)c3O)CCN21 has a reported EC50 of 10

###

system: Influenza A virus; experiment: Cytotoxicity against A/WSN/33 strain (an H1N1 subtype) influenza virus in the plaque reduction assay; type: functional
Known CC50 of a selection of compounds

> print(dat)
                               input.smiles  target.under.test  result.value
1  C[C@@H]1CCC[C@@H]2C[C@@H](NC(=O)c3cc4ccccc4cc3O)CCN21  Influenza A virus   > 100 µg/mL
2  CC(=O)Nc1ccccc1C(=O)N[C@H]1CCN2[C@H](CCC[C@H]2C)C1  Influenza A virus   > 100 µg/mL
3  C[C@@H]1CCC[C@@H]2C[C@@H](NC(=O)c3cc(Br)ccc3O)CCN21  Influenza A virus   > 100 µg/mL

The compound listed as C[C@@H]1CCC[C@@H]2C[C@@H](NC(=O)c3cc(N=[N+]=[N-])ccc3O)CCN21 has a reported CC50 of > 100 µg/mL

The compound listed as Cc1ccc(O)c(C(=O)N[C@H]2CCN3[C@H](CCC[C@H]3C)C2)c1 has a reported CC50 of 100 µg/mL

The compound listed as C[C@@H]1CCC[C@@H]2C[C@@H](NC(=O)c3cc(F)ccc3O)CCN21 has a reported CC50 of > 100 µg/mL

###

Known CC50 of a selection of molecules
tested on: Influenza A virus; assay: Cytotoxicity against A/WSN/33 strain (an H1N1 subtype) influenza virus in the plaque reduction assay; assay type: functional

Examples with answers:
> print(dat)
                               input.smiles  target.under.test  result.value
1  C[C@@H]1CCC[C@@H]2C[C@@H](NC(=O)c3cc(Cl)c(N)cc3O)CCN21  Influenza A virus   > 100 µg/mL
2  C[C@@H]1CCC[C@@H]2C[C@@H](NC(=O)c3c(O)ccc4ccccc34)CCN21  Influenza A virus   > 100 µg/mL

Value sought: CC50, system Influenza A virus, item C[C@@H]1CCC[C@@H]2C[C@@H](NC(=O)c3c(O)cccc3F)CCN21 . Result: > 100 µg/mL

###

Known CC50 of a selection of molecules
tested on: Influenza A virus; assay: Cytotoxicity against A/WSN/33 strain (an H1N1 subtype) influenza virus in the plaque reduction assay; assay type: functional

Examples with answers:
> print(dat)
                               input.smiles  result.value
1  C[C@@H]1CCC[C@@H]2C[C@@H](NC(=O)c3cc(Cl)cc(Cl)c3O)CCN21   > 100 µg/mL
2  C[C@@H]1CCC[C@@H]2C[C@@H](NC(=O)c3cc(C(=O)c4ccccc4)ccc3O)CCN21   > 100 µg/mL
3  C[C@@H]1CCC[C@@H]2C[C@@H](NC(=O)c3ccccc3O)CCN21   > 100 µg/mL

The molecule listed as C[C@@H]1CCC[C@@H]2C[C@@H](NC(=O)c3ccccc3N)CCN21 has a reported CC50 of > 100 µg/mL

The molecule listed as COc1cc(N)c(Cl)cc1C(=O)N[C@H]1CCN2[C@H](CCC[C@H]2C)C1 has a reported CC50 of > 100 µg/mL

The molecule listed as Cc1ccc(C(=O)N[C@H]2CCN3[C@H](CCC[C@H]3C)C2)c(O)c1 has a reported CC50 of > 100 µg/mL

The molecule listed as C[C@@H]1CCC[C@@H]2C[C@@H](NC(=O)c3cc(C(F)(F)F)ccc3O)CCN21 has a reported CC50 of > 100 µg/mL

The molecule listed as C[C@@H]1CCC[C@@H]2C[C@@H](NC(=O)c3cc(C(C)(C)C)ccc3O)CCN21 has a reported CC50 of 50 µg/mL

The molecule listed as C=Cc1ccc(O)c(C(=O)N[C@H]2CCN3[C@H](CCC[C@H]3C)C2)c1 has a reported CC50 of > 100 µg/mL

The molecule listed as C[C@@H]1CCC[C@@H]2C[C@@H](NC(=O)c3cc4c(cc3O)C(C)(C)CCC4(C)C)CCN21 has a reported CC50 of 8 µg/mL

The molecule listed as C[C@@H]1CCC[C@@H]2C[C@@H](NC(=O)c3cccc(O)c3O)CCN21 has a reported CC50 of 10 µg/mL
